- protocol_summary: Saturation solubility test of the compound of formula I in different solvents
- Format: physicochemical
- condition_label: organic solvent or mixture, thermodynamic from solid; saturation solubility in Propylene glycol
observation_type: solubility (µg/mL)
The reply should be a number in µg/mL, with the unit left off.

Request: Can you share its solubility? I mean this molecule: CCS(=O)(=O)N1CC(C(CC#N)n2cc(-c3nc(Nc4cnn(C)c4)nc4ccsc34)cn2)C1 (stereo not shown)
Response: 990

###

- protocol_summary: Saturation solubility test of the compound of formula I in different solvents
- Format: physicochemical
- condition_label: oil or lipid, thermodynamic from solid; saturation solubility in Medium chain triglycerides
observation_type: solubility

Request: Can you share its solubility? I mean this compound: CCS(=O)(=O)N1CC(C(CC#N)n2cc(-c3nc(Nc4cnn(C)c4)nc4ccsc34)cn2)C1 (stereo not shown) [Compound of formula I]
Response: 75 µg/mL

From: patent US20250213573A1
